assay: amyloid nucleation score (Sup35N fusion, yeast selection) (log enrichment); library NNK2; higher = more nucleation; inactive = no reads after selection;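 further: zero at mode of non-aggregating sequences after 7 days selection at 30°C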
attributeMeasured: amyloid nucleation score

Example results:
1) GVDKGSVYG ... inactive
2) MEAIVERIGYITYVLNFKER ... inactive
3) IMYWRGFWLFASLFTILWWF ... inactive
4) AYSIFVFYTYVTTHLRHITR ... inactive

Req: Item `GWKDGLAASSF` has what recorded amyloid nucleation score?
Resp: 1.01

Req: Another: `ASYQRSCILRRFTFVSCILI`
Resp: 1.56

Req: Another: `SINIYNFAQVSAFYCGLVEC`
Resp: 5.45

Req: Another: `FGHNGRICKRLMEVPIFERA`
Resp: -0.655

Req: Another: `FRIPRWFKTS`
Resp: -0.284

Req: Another: `HVNWVKKSSWLIGT`
Resp: 0.62

Req: Another: `RMKMDNIPFEIYVFTVTLLD`
Resp: inactive

Req: Another: `QFCSDCV`
Resp: -0.9

Req: Another: `RSSLQSPWGYPKPMWLRSCA`
Resp: 1.06

Req: Another: `GRPVMMEMPII`
Resp: 0.512

Req: Another: `GINISVLNMRQLFRLSAGSH`
Resp: 4.36

Req: Another: `CVGGGRQKCEHNVMITLMTF`
Resp: 4.22

Req: Another: `MLCGINGMMSSTLVCGRAII`
Resp: -0.161

Req: Another: `YSIIFWCFKWYLIQGWLECA`
Resp: inactive

Req: Another: `MEKARTGGGSVTHDGKCARW`
Resp: 0.649

Req: Another: `SGLGGGFFSIVCYTHISVRE`
Resp: -0.069

Req: Another: `IFRLELNTIIPPSQYNASAH`
Resp: 4.57

* * *

assay: amyloid nucleation score (Sup35N fusion, yeast selection) (log enrichment); library NNK2; higher = more nucleation; inactive = no reads after selection
attributeMeasured: amyloid nucleation score

Example results:
1. SNDDIEIAKRSHMY ... 0.196
2. LLDMYNYTGIF ... inactive
3. MGLSTRLH ... inactive
4. GSWLFREVMPA ... -0.51
5. VGFHEDNMEVR ... inactive

Req: Item `KSSNHITRFRSHSMETSRMV` has what recorded amyloid nucleation score?
Resp: inactive

Req: Another: `FASCRIVSRG`
Resp: inactive

* * *

experiment: amyloid nucleation score (Sup35N fusion, yeast selection) (log enrichment); library NNK3; higher = more nucleation; inactive = no reads after selection
attributeMeasured: amyloid nucleation score

Example results:
1. IGLSLE ... inactive
2. VFYGKGETYQEWHSLYFLKS ... -0.067
3. SPLTARMADRRDTA ... -0.134
4. FCMRMDRLQLRIADSLLRFF ... inactive
5. PGSGIHNWMNCYRSLKE ... inactive

Req: Item `FACAFKSSCLNHLCSAVW` has what recorded amyloid nucleation score?
Resp: 0.757

Req: Another: `RCLAPGCRIVNRFLSINYKS`
Resp: inactive

Req: Another: `HSNSRD`
Resp: -0.231

Req: Another: `YRPFWSA`
Resp: inactive

Req: Another: `FLFIGSFCGCSVSRPDRYYS`
Resp: 2.57

Req: Another: `SRRSLNGIN`
Resp: -0.05

Data provenance: the supplement of paper PMC12042874
